The reader will find reported solubility at 24 h values listed item by item below.
# TEST SUMMARY: Solubility measurement (DMSO solution precipitation method)
# Format: physicochemical
# SETUP CONDITIONS: aqueous buffer, kinetic from dmso stock, McIlvaine buffer pH 4.5, 24 h, read-out: solubility pH 4.5

Prompt line: Please list solubility at 24 h recorded for the compound C[C@H](Oc1nc(-c2onc3c2CCC[C@@]32CCCc3sc(N)c(C#N)c32)nc2c1n(C)c(=O)n2[C@@H]1CCOC1)[C@@H]1CC[C@H](C)N1C [I-26]
Response line: > 158 µg/mL

Prompt line: Retrieve solubility at 24 h measured for CCn1c(=O)n([C@@H]2CCCOC2)c2nc(-c3onc4c3CCC[C@@]43CCCc4sc(N)c(C#N)c43)nc(O[C@@H](C)[C@@H]3CCCN3C)c21 [I-30] and print it.
Response line: > 154 µg/mL

Prompt line: Tell me its solubility at 24 h given CO[C@H]1CCN(C)[C@@H]1[C@H](C)Oc1nc(-c2onc3c2CCC[C@@]32CCCc3sc(N)c(C#N)c32)nc2c1n(C)c(=O)n2[C@H]1COC[C@@H](C)C1 [I-51] as the entry.
Response line: > 153 µg/mL

Prompt line: Answer with reported solubility at 24 h of C[C@H](Oc1nc(-c2noc3c2CCC[C@@]32CCCc3sc(N)c(C#N)c32)nc2c1CN(C1COC1)C[C@]21CCOC1)[C@@H]1CC[C@H](C)N1C [II-17]
Response line: > 138 µg/mL

Next:
Prompt line: Dear colleague, please send me the reported solubility at 24 h for C[C@H](Oc1nc(-c2noc3c2CCC[C@@]32CCCc3sc(N)c(C#N)c32)nc2c1cnn2[C@@H]1CCOC1)[C@@H]1CCCN1C [II-4] when you can.
Response line: > 139 µg/mL

Prompt line: Read the entry C[C@H](Oc1nc(-c2onc3c2CCC[C@@]32CCCc3sc(N)c(C#N)c32)nc2c1CN(C1COC1)C[C@]21CCOC1)[C@@H]1CCCN1C [I-56] and write its reported solubility at 24 h.
Response line: > 157 µg/mL

Prompt line: Please report the measured solubility at 24 h for Cc1cn([C@@H]2CCOC2)c2nc(-c3onc4c3CCC[C@@]43CCCc4sc(N)c(C#N)c43)nc(O[C@@H](C)[C@@H]3CCCN3C)c12 [I-41]
Response line: > 137 µg/mL

Prompt line: Look up solubility at 24 h of CO[C@H]1CCN(C)[C@@H]1[C@H](C)Oc1nc(-c2noc3c2CCC[C@@]32CCCc3sc(N)c(C#N)c32)nc2c1CN(C1COC1)C[C@]21CCOC1 [II-13] and report it.
Response line: > 151 µg/mL

Prompt line: Specify measured solubility at 24 h for C[C@H](Oc1nc(-c2onc3c2CCC[C@@]32CCCc3sc(N)c(C#N)c32)nc2c1n(C)c(=O)n2[C@@H]1CCOC1)[C@@H]1[C@H](F)CCN1C [I-4] .
Response line: > 152 µg/mL

Prompt line: Note solubility at 24 h for the compound shown: C[C@H](Oc1nc(-c2onc3c2CCC[C@@]32CCCc3sc(N)c(C#N)c32)nc2c1ncn2[C@@H]1CCOC1)[C@@H]1CCCN1C [I-38]
Response line: > 144 µg/mL

Prompt line: Give the value of solubility at 24 h reported for the following: COCCn1c(=O)n(C)c2c(O[C@@H](C)[C@@H]3CCCN3C)nc(-c3onc4c3CCC[C@@]43CCCc4sc(N)c(C#N)c43)nc21 [I-7]
Response line: > 150 µg/mL

Prompt line: Give the value of solubility at 24 h reported for the following: COCCn1c(=O)n([C@@H]2CCOC2)c2nc(-c3onc4c3CCC[C@@]43CCCc4sc(N)c(C#N)c43)nc(O[C@@H](C)[C@@H]3CCCN3C)c21 [I-1]
Response line: > 157 µg/mL

Prompt line: Give recorded solubility at 24 h. C[C@H](Oc1nc(-c2onc3c2CCC[C@@]32CCCc3sc(N)c(C#N)c32)nc2c1n(C)c(=O)n2[C@@H]1CCOC1)[C@@H]1C[C@H](F)CN1C [I-27]
Response line: > 153 µg/mL

Prompt line: Find the measured solubility at 24 h of CO[C@H]1CCN(C)[C@@H]1[C@H](C)Oc1nc(-c2noc3c2CCC[C@@]32CCCc3sc(N)c(C#N)c32)nc2c1n(C)c(=O)n2[C@@H]1CCCOC1 [II-3] and report it.
Response line: > 151 µg/mL
